TARGET_DESC: recombinant human BACE-1 (Homo sapiens, UniProt P56817)
Construct: purchased R & D Systems
Sequence (P56817 46-501): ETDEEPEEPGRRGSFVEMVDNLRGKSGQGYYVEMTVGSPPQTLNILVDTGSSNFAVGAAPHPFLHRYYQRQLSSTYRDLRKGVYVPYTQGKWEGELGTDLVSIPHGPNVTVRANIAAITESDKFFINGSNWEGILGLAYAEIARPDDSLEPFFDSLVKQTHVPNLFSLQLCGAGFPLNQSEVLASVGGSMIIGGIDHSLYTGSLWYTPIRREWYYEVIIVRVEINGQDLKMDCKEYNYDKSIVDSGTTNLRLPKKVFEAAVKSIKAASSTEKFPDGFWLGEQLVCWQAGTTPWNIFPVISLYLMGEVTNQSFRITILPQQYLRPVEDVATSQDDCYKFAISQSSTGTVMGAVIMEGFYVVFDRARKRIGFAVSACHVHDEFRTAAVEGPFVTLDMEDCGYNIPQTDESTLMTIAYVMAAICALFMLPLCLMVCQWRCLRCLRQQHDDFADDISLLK
TEST_PROTOCOL: BACE-1 FRET peptide cleavage assay
Assay type: biochemical
STUDY_CONDITIONS: FRET peptide with Swedish variant; 20 mM sodium acetate, 0.1% Triton-X-100, pH 4.5; 2 h, 25° C.; triplicate; read-out: IC50 (μmol), inhibitory activity for cleavage of FRET peptide by BACE-1
TEST_READOUT: IC50 (µM)
Numbers only, in µM.

CC(=O)NC1C(OC2C(C(=O)O)OC(OC3C(COS(=O)(=O)O)OC(OCCCCCN)C(NC(C)=O)C3O)C(O)C2O)OC(COS(=O)(=O)O)C(OC2OC(C(=O)O)C(O)C(O)C2O)C1O (centres unmarked) [Compound 82]	32

From here, focus on the item given below.
Noted for NCCCCCOC1OC(COS(=O)(=O)O)C(OC2OC(C(=O)O)C(OC3OC(COS(=O)(=O)O)C(OC4OC(C(=O)O)C(OC5OC(COS(=O)(=O)O)C(OC6OC(C(=O)O)C(O)C(O)C6O)C(O)C5NS(=O)(=O)O)C(O)C4O)C(O)C3NS(=O)(=O)O)C(O)C2O)C(O)C1NS(=O)(=O)O (centres unmarked) [Compound 69] : its IC50 reads 36

----------
Would you mind telling me the reported IC50 of each entry?
TARGET_DESC: recombinant human BACE-1 (Homo sapiens, UniProt P56817)
Construct: purchased R & D Systems
TEST_PROTOCOL: BACE-1 FRET peptide cleavage assay
Type: biochemical
STUDY_CONDITIONS: FRET peptide with Swedish variant; 20 mM sodium acetate, 0.1% Triton-X-100, pH 4.5; 2 h, 25° C.; triplicate; read-out: IC50 (μg/ml), inhibitory activity for cleavage of FRET peptide by BACE-1 (converted)
Structures can show the parent of a compound that is named as a salt.
Answers are plain numbers, in µM.

The following compounds each have a reported value; give each one's IC50.
1. CC(=O)NC1C(OC2C(C(=O)O)OC(OC3C(COS(=O)(=O)O)OC(OCCCCCN)C(NC(C)=O)C3O)C(O)C2O)OC(COS(=O)(=O)O)C(OC2OC(C(=O)O)C(O)C(O)C2O)C1O (centres unmarked) [Compound 80]
2. CC(=O)NC1C(OC2C(C(=O)O)OC(OC3C(COS(=O)(=O)O)OC(OCCCCCN)C(NC(C)=O)C3O)C(O)C2O)OC(COS(=O)(=O)O)C(OC2OC(C(=O)O)C(O)C(O)C2O)C1O (centres unmarked) [Compound 76]
3. NCCCCCOC1OC(COS(=O)(=O)O)C(OC2OC(C(=O)O)C(OC3OC(COS(=O)(=O)O)C(OC4OC(C(=O)O)C(OC5OC(COS(=O)(=O)O)C(OC6OC(C(=O)O)C(O)C(O)C6O)C(O)C5NS(=O)(=O)O)C(O)C4O)C(O)C3NS(=O)(=O)O)C(O)C2O)C(O)C1NS(=O)(=O)O (centres unmarked) [Compound 69]

Reply:
102
38.2
40.1

The following compounds each have a reported value; give each one's IC50.
1. CC(=O)NC1C(OC2C(C(=O)O)OC(OC3C(COS(=O)(=O)O)OC(OCCCCCN)C(NC(C)=O)C3O)C(OS(=O)(=O)O)C2O)OC(COS(=O)(=O)O)C(OC2OC(C(=O)O)C(O)C(O)C2O)C1O (centres unmarked) [Compound 85, sodium salt]
2. CC(=O)NC1C(OC2C(C(=O)O)OC(OC3C(COS(=O)(=O)O)OC(OCCCCCN)C(NC(C)=O)C3O)C(O)C2O)OC(COS(=O)(=O)O)C(OC2OC(C(=O)O)C(O)C(O)C2O)C1O (centres unmarked) [Compound 82]

Reply:
[152, 34.2]

----------
TARGET_DESC: recombinant human BACE-1 (Homo sapiens)
Construct: purchased R & D Systems
TEST_PROTOCOL: BACE-1 FRET peptide cleavage assay
Type: biochemical
STUDY_CONDITIONS: FRET peptide with Swedish variant; 20 mM sodium acetate, 0.1% Triton-X-100, pH 4.5; 2 h, 25° C.; triplicate; read-out: IC50 (μmol), inhibitory activity for cleavage of FRET peptide by BACE-1
Procedure: The ability of the HS oligosaccharides to inhibit BACE-1 cleavage of APP was assessed using a fluorescent resonance energy transfer (FRET) peptide cleavage assay employing the Swedish amino acid variant FRET peptide 5-FAM-Glu-Val-Asn-Leu-Asp-Ala-Phe-Lys(QXL520)-OH. When intact, the amino terminal fluorophore is quenched, but upon enzymatic cleavage, it is released from quencher and fluoresces at 520 nm. […]
Structures can show the parent of a compound that is named as a salt.
TEST_READOUT: pIC50
Numbers only, as −log10 of the molar value.

// below: answered compounds
CC(=O)NC1C(OC2C(C(=O)O)OC(OC3C(COS(=O)(=O)O)OC(OCCCCCN)C(NC(C)=O)C3O)C(OS(=O)(=O)O)C2O)OC(COS(=O)(=O)O)C(OC2OC(C(=O)O)C(O)C(O)C2O)C1O (stereo not drawn) [Compound 85, sodium salt]	3.86
CC(=O)NC1C(OC2C(C(=O)O)OC(OC3C(COS(=O)(=O)O)OC(OCCCCCN)C(NC(C)=O)C3O)C(O)C2O)OC(COS(=O)(=O)O)C(OC2OC(C(=O)O)C(O)C(O)C2O)C1O (stereo not drawn) [Compound 76]	4.46

From here, focus on the item given below.
// pIC50 (recombinant human BACE-1 (Homo sapiens)) for CC(=O)NC1C(OC2C(C(=O)O)OC(OC3C(COS(=O)(=O)O)OC(OCCCCCN)C(NC(C)=O)C3O)C(O)C2O)OC(COS(=O)(=O)O)C(OC2OC(C(=O)O)C(O)C(O)C2O)C1O (stereo not drawn) [Compound 80] = 4.03

----------
Would you mind telling me the reported IC50 of each entry?
TARGET_DESC: recombinant human BACE-1 (Homo sapiens)
Construct: purchased R & D Systems
TEST_PROTOCOL: BACE-1 FRET peptide cleavage assay
Type: biochemical
STUDY_CONDITIONS: FRET peptide with Swedish variant; 20 mM sodium acetate, 0.1% Triton-X-100, pH 4.5; 2 h, 25° C.; triplicate; read-out: IC50 (μg/ml), inhibitory activity for cleavage of FRET peptide by BACE-1 (converted)
Counter-ions that a name gives are not always drawn.

// below: answered compounds
NCCCCCOC1OC(COS(=O)(=O)O)C(OC2OC(C(=O)O)C(OC3OC(COS(=O)(=O)O)C(OC4OC(C(=O)O)C(O)C(O)C4O)C(O)C3NS(=O)(=O)O)C(O)C2OS(=O)(=O)O)C(O)C1NS(=O)(=O)O (stereo not drawn)	> 255 µM
CC(=O)NC1C(OC2C(C(=O)O)OC(OC3C(COS(=O)(=O)O)OC(OCCCCCN)C(NC(C)=O)C3O)C(O)C2O)OC(COS(=O)(=O)O)C(OC2OC(C(=O)O)C(O)C(O)C2O)C1O (stereo not drawn) [Compound 78]	> 294 µM

Noted for CC(=O)NC1C(OC2C(C(=O)O)OC(OC3C(COS(=O)(=O)O)OC(OCCCCCN)C(NC(C)=O)C3O)C(OS(=O)(=O)O)C2O)OC(COS(=O)(=O)O)C(OC2OC(C(=O)O)C(O)C(O)C2O)C1O (stereo not drawn) [Compound 84, sodium salt] : its IC50 reads > 272 µM
